Ki: recorded values
# test: Inhibition of rice alpha-glucosidase pre-incubated for 1 hr followed by p-nitrophenyl-alpha-D-glucopyranoside substrate addition by fluorescence detection based assay
# Parameters: species or system Oryza sativa
Lab book: enter the figure in µM, no units written.

| molecule | parameterMeasured | unitsText | numericResult |
| --- | --- | --- | --- |
| OCC1(CO)NC[C@H](F)[C@H]1O | Ki | µM | 376 |

Let us move to another entry and its Ki.
## Input Read the entry OCCN1C[C@H](O)[C@@H](O)[C@H](O)[C@H]1CO [MIGLITOL] and write its reported Ki.
## Output 0.028

###

# test: Inhibition of yeast alpha-glucosidase pre-incubated for 1 hr followed by p-nitrophenyl-alpha-D-glucopyranoside substrate addition by fluorescence detection based assay
# Design: species or system Saccharomyces cerevisiae
parameterMeasured: pIC50
Remember, pIC50 is on a log scale: it is -log10 of the molar concentration.

## Input Provide only the value of recorded pIC50 for `O=C(O)[C@]1(CO)NC[C@@H](O)[C@H]1O`
## Output 3.12

###

# test: Inhibition of almond beta-glucosidase pre-incubated for 1 hr followed by p-nitrophenyl-beta-D-glucopyranoside, substrate addition by fluorescence detection based assay
# Set-up: species or system Prunus dulcis
parameterMeasured: IC50
# output: numeric value plus its unit

## Input Indicate its recorded IC50; the compound in question is `O=C(O)[C@@]1(CO)NC[C@@H](O)[C@H]1O`
## Output 445 µM

###

# assayedTarget: Alpha-galactosidase (Coffea arabica, UniProt Q42656)
# Sequence (Q42656 whole entry): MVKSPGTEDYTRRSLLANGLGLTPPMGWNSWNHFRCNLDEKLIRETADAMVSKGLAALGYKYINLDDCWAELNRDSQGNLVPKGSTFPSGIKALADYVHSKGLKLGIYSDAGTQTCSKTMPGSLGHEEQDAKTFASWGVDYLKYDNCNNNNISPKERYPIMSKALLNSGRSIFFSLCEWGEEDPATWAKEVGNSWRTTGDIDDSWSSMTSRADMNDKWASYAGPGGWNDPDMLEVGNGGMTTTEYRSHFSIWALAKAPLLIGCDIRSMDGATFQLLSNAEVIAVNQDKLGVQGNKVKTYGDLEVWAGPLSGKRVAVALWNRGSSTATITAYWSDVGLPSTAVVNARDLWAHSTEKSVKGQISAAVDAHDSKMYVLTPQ
# test: Competitive inhibition of coffee beans alpha-galactosidase pre-incubated for 1 hr followed by p-nitrophenyl-alpha-D-galactopyranoside substrate addition by fluorescence detection based assay
parameterMeasured: IC50 (nM)
// units = nM; emit number, no label

| testSmiles | IC50, nM |
| --- | --- |
| OCC1(CO)NC[C@@H](O)[C@H]1O | 16 |

## Input Output IC50 of `O=C(O)[C@@]1(CO)NC[C@@H](O)[C@H]1O`
## Output 79

###

# test: Competitive inhibition of almond beta-glucosidase pre-incubated for 1 hr followed by p-nitrophenyl-beta-D-glucopyranoside, substrate addition by fluorescence detection based assay
# Parameters: species or system Prunus dulcis
parameterMeasured: pIC50
Note on units: pIC50 is unitless, being -log10 of a concentration expressed in mol/L.

## Input Supply reported pIC50 belonging to this compound: `OCC1(CO)NC[C@H](F)[C@H]1O`
## Output 6.74

###

# assayedTarget: Alpha-galactosidase (Coffea arabica, UniProt Q42656)
# test: Competitive inhibition of coffee beans alpha-galactosidase pre-incubated for 1 hr followed by p-nitrophenyl-alpha-D-galactopyranoside substrate addition by fluorescence detection based assay
Recorded Ki, one value per entry.
Express your answer as a number followed by its unit.

| testSmiles | Ki |
| --- | --- |
| O=C(O)[C@@]1(CO)NC[C@@H](O)[C@H]1O | 62 nM |

## Input Please supply the value of reported Ki for the item `OCC1(CO)NC[C@@H](O)[C@H]1O`
## Output 8 nM

###

# test: Competitive inhibition of Escherichia coli beta-galactosidase pre-incubated for 1 hr followed by p-nitrophenyl-beta-D-galactopyranoside substrate addition by fluorescence detection based assay
parameterMeasured: IC50 (nM)
Just the number in nM, nothing appended.

## Input Given `O=C(O)[C@]1(CO)NC[C@H](F)[C@H]1O` , respond with its IC50.
## Output 65

Origin of the recorded values: ChEMBL document CHEMBL4043123
